- study.target: Histone-lysine N-methyltransferase NSD2 (Homo sapiens, UniProt O96028)
- Sequence (O96028 whole entry): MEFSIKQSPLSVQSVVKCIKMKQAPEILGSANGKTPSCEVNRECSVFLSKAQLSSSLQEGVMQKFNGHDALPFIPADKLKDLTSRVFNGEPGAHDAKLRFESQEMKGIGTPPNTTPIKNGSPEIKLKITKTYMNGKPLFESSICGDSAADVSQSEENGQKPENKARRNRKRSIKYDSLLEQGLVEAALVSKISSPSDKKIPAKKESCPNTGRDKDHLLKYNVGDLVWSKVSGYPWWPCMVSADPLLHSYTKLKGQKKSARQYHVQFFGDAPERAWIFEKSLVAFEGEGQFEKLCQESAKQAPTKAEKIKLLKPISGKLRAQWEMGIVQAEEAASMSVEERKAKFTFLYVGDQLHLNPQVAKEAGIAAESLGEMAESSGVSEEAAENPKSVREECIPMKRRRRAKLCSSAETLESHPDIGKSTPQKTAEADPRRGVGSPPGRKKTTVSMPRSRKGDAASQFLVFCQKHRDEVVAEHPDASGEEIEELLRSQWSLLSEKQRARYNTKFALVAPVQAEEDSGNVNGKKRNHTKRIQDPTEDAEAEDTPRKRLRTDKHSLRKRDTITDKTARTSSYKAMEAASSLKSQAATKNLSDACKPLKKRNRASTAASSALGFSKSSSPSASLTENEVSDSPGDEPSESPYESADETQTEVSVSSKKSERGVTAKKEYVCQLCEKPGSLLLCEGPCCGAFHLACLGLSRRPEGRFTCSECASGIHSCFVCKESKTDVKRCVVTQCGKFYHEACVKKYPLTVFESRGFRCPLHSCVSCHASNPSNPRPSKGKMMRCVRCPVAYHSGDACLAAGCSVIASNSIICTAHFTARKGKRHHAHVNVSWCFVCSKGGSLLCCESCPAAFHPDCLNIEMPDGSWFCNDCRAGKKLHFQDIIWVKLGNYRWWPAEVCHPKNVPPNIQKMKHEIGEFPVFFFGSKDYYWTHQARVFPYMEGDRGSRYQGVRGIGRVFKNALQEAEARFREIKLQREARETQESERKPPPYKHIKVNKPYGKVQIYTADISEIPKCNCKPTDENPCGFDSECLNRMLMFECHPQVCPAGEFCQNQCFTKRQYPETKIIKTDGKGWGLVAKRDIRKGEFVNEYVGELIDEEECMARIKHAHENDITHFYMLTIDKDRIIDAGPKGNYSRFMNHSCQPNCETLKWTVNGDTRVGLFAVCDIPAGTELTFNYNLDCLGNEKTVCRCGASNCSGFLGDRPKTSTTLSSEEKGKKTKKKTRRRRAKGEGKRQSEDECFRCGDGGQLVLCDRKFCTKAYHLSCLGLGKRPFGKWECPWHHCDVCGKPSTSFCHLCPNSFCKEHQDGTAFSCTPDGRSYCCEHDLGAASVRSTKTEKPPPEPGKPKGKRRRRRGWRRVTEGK
- Type: biochemical
The source made the active and inactive calls.
Classes used: TRUE for active, FALSE for inactive

INSERT INTO assay_data (molecule, study_target, category_label) VALUES
  ('CCCn1c2c(c(O)c(C(=O)NCCCN(CC)CC)c1=O)CCCC2', 'Histone-lysine N-methyltransferase NSD2 (Homo sapiens, UniProt O96028)', 'FALSE'),
  ('CNCc1ccccc1Sc1ccc(OC)c(OC)c1', 'Histone-lysine N-methyltransferase NSD2 (Homo sapiens, UniProt O96028)', 'FALSE'),
  ('O=S(=O)(O)c1cc(O)c(N=Nc2ccc(O)cc2O)c2ccccc12', 'Histone-lysine N-methyltransferase NSD2 (Homo sapiens, UniProt O96028)', 'TRUE'),
  ('Cc1[nH]c(=O)[nH]c1C(=O)CCCCC(=O)O', 'Histone-lysine N-methyltransferase NSD2 (Homo sapiens, UniProt O96028)', 'TRUE'),
  ('C=CCC1C=C(Cc2ccccc2)CC(CC=C)N1 (stereo not given)', 'Histone-lysine N-methyltransferase NSD2 (Homo sapiens, UniProt O96028)', 'FALSE');

* * *

- study.target: Cytochrome P450 2C19 (Homo sapiens, UniProt P33261)
- Sequence (P33261 whole entry): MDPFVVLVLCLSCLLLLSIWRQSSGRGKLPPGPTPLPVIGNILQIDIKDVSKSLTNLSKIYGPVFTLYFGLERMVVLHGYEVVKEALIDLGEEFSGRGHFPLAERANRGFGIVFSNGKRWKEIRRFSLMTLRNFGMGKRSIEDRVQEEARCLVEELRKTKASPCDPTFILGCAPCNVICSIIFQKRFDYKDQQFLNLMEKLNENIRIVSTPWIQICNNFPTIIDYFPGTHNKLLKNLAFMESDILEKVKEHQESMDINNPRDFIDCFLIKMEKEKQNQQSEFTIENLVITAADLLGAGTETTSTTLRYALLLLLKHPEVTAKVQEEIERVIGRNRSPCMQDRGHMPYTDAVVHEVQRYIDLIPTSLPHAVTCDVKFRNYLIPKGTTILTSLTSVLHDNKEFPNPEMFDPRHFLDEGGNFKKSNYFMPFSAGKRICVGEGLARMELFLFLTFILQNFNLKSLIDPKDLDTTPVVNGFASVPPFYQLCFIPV
- procedure.details: Cytochrome panel assay with activity outcomes. Panel member name: p450-cyp2c19 Compounds with AC50 equal or less than 10 uM are considered active
- Assay type: functional
- stated.conditions: read-out: AC50
reported.metric: AC50

INSERT INTO assay_data (compound, test_result) VALUES
  ('CCCCCC1=C2CNC(CC(C)C)(C(=O)OC)C=C2C(C)C1=O (centres undefined)', '6.31 µM (inconclusive)'),
  ('CC(NC(=O)c1cccc(F)c1)C(c1cccs1)N1CCN(C)CC1 (centres undefined)', '31.6 µM (inconclusive)'),
  ('CCOC(=O)Nc1ccc(C)cc1NC(=O)OCC', '14.1 µM (inconclusive)'),
  ('CC(C)(Sc1ccc(CCN(CCCCC2CCCCC2)C(=O)NC2CCCCC2)cc1)C(=O)O', '25.1 µM (inconclusive)'),
  ('O=C1[C@H]2[C@H]3[C@H](O)[C@H](O)C/C(=N/OCc4ccccc4)[C@H]3CC[C@@H]2C(=O)N1Cc1ccc2c(c1)OCO2', '2 µM (inconclusive)'),
  ('CC(C)CN=C(S)NC1CC2CCCC(C1)N2Cc1ccco1 (centres undefined)', '39.8 µM (inconclusive)'),
  ('CCOc1ccc(NC(=O)N2CCC(C(N)=O)(N3CCCCC3)CC2)cc1', '8.91 µM (inconclusive)'),
  ('Cc1cc2nc(O)c([C@H](C)C(=O)c3ccc(Cl)cc3)nc2cc1C', '0.0794 µM (inconclusive)'),
  ('CC(C)CN(C)c1nc(N)c(C(=O)N=C(N)N)nc1Cl [5-(N-METHYL-N-ISOBUTYL)AMILORIDE]', '31.6 µM (inconclusive)');

* * *

- procedure.details: Luminescence Cell-Based Dose Response HTS to Identify Inhibitors of 5'UTR Stem-Loop Driven Prion Protein mRNA Translation in H4 Neuroglioblastoma Cells. [Related pubchem assays: 1827 (Project Summary), 1813 (Primary HTS)]
- Assay type: functional
Structures can show the parent of a compound that is named as a salt. The source made the active and inactive calls.
EC50 by entry:
reported.metric: EC50

INSERT INTO measurements (compound, test_result) VALUES
  ('C1CCC(C(CC2CCCCN2)C2CCCCC2)CC1 (stereo not given) [PERHEXILINE MALEATE]', '> 120 µM (not active)'),
  ('CCCC1O[C@@H]2CC3C4CCC5=CC(=O)C=C[C@]5(C)C4C(OC(C)=O)C[C@]3(C)[C@]2(C(=O)COC(C)=O)O1 (stereo not given in full)', '> 120 µM (not active)'),
  ('CCOc1ccccc1NC(=O)Cn1nnc(C(=O)NCc2cccs2)c1N', '< 0.1 µM (active)'),
  ('CC(C)(C)c1ccc(Oc2ccc(NC(=O)c3ccccc3C(=O)O)cn2)cc1', '12 µM (active)'),
  ('CC(=O)N(C)C1=C(N2CCOCC2)C(=O)c2ccccc2C1=O', '11.7 µM (active)');

* * *

- study.target: Protein skinhead-1 (Caenorhabditis elegans)
- Sequence (P34707 whole entry): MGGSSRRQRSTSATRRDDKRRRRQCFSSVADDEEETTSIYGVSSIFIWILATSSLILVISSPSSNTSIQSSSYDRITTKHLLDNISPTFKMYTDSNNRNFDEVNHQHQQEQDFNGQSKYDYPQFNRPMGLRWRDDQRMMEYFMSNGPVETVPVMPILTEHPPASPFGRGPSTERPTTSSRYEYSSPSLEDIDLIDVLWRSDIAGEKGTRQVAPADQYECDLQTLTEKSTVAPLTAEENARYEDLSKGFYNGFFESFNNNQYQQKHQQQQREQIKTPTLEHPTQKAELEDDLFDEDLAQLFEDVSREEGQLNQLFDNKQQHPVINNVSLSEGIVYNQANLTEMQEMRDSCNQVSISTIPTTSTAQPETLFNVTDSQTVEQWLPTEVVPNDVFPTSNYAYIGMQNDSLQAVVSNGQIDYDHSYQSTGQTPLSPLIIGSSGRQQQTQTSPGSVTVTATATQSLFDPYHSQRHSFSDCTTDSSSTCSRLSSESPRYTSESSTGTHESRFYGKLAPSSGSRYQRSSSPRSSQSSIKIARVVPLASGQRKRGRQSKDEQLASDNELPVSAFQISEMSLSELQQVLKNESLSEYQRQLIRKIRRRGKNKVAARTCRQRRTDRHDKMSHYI
- Format: functional
Calls of active or inactive are those of the source.
reported.metric: IC50

INSERT INTO measurements (molecule, reported_metric, test_result) VALUES
  ('COc1cccc(-c2noc(-c3cccs3)n2)c1', 'IC50', '13.7 µM (active)'),
  ('CCCCCOc1ccccc1C(=O)NCCC(=O)O', 'IC50', '> 100 µM (inactive)'),
  ('CCC(C(=O)N(C(C)C)C(C)C)c1ccccc1 (stereo unspecified)', 'IC50', '> 100 µM (inactive)'),
  ('Nc1ccc(N2CCN(C(=O)c3cccs3)CC2)cc1', 'IC50', '> 100 µM (inactive)'),
  ('CCCC(C(=O)Nc1ccc(S(=O)(=O)N2CCOCC2)cc1)c1ccccc1 (stereo unspecified)', 'IC50', '> 100 µM (inactive)'),
  ('Fc1ccc(OCc2nc(-c3cccs3)no2)cc1', 'IC50', '24.5 µM (active)');

* * *

- procedure.details: HepG2 cell cytotoxicity, dose response, cytotoxicity control for Shn3 inhibitor project, CellTiter-Glo, cherry-picked (AID 624134)
- Type: functional, cell-based
Active and inactive are the calls of the source.
reported.metric: AC50

INSERT INTO results (compound, test_result) VALUES
  ('COc1cccc(-n2c(C)nc3c(cnn3-c3ccc(Cl)cc3)c2=O)c1', '61.4 µM (active)'),
  ('CC(O)CC(=O)OC[C@]12CC[C@H]3[C@@](C)(CC[C@H]4C(C)(C)CCC[C@]34C)[C@@H]1CC(C1=CC(=O)OC1O)O2 (some centres undefined)', '22.1 µM (active)'),
  ('O=[N+]([O-])c1cccnc1S(=O)(=O)c1ccccc1', '51 µM (active)'),
  ('S=C(NCc1ccc(Cl)cc1)Nc1ccncc1', '22.1 µM (active)');

* * *

- study.target: Leucine aminopeptidase (Plasmodium falciparum 3D7, UniProt Q8IL11)
- Sequence (Q8IL11 whole entry): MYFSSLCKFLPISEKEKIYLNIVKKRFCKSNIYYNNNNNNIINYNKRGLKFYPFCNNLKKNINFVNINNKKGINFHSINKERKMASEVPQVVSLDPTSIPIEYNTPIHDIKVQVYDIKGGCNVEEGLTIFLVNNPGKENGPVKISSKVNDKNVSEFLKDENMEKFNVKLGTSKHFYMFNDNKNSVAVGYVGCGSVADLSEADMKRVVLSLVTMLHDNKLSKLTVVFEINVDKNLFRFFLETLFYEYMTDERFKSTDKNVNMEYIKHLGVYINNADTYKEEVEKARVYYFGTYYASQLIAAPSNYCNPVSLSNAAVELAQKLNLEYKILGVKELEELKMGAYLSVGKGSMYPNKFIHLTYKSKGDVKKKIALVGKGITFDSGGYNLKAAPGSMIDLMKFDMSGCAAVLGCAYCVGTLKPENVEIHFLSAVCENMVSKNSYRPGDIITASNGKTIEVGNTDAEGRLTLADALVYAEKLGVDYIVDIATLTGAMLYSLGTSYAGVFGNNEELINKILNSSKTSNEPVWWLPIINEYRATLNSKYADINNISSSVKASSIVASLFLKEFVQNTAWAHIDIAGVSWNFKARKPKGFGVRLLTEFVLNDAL
- procedure.details: P. falciparum M17LAP inhibitors, primary screen, biochemical, fluorogenic H-Leu-NHMec substrate, 1536-well (AID 1619)
- Type: functional
Activity calls are given as the source filed them.
IC50 by entry:
reported.metric: IC50

INSERT INTO assay_data (compound, test_result) VALUES
  ('CC1(C)[N+]([O-])=CC(c2cccs2)=[N+]1[O-]', '22.7 µM (active)'),
  ('Cc1noc(NS(=O)(=O)c2ccc(NC(=O)CSc3nc4ccccc4s3)cc2)c1C', '15.3 µM (active)'),
  ('Cc1ccc(OCC(=O)Nc2ccc(O)c(C(=O)O)c2)cc1C', '19.5 µM (active)'),
  ('CCOc1ccc(NC(=O)C2C(C(=O)O)C3(Cl)C(Cl)=C(Cl)C2(Cl)C3(Cl)Cl)cc1 (stereo not given)', '< 1 µM (active)'),
  ('N#CC1=C(N)Oc2[nH]nc(-c3ccccc3)c2C1c1cccnc1 (stereo not given)', '60.4 µM (active)');

* * *

AC50 by entry:
- study.target: Dual specificity tyrosine-phosphorylation-regulated kinase 1A (Rattus norvegicus, UniProt Q63470)
- Assay type: biochemical, Homo sapiens
Calls of active or inactive are those of the source.
reported.metric: AC50

INSERT INTO measurements (smiles_input, test_result) VALUES
  ('Cc1[nH]ccc2c1[nH]c1cc(=O)ccc12', '0.298 µM (active)'),
  ('O=C(Nc1ccc(F)cc1)C(=O)c1c(O)[nH]c2ccc([N+](=O)[O-])cc12', '10.4 µM (active)'),
  ('O=C1NC(=O)N(c2ccccc2)C(=O)/C1=C/c1c(-c2ccccc2)[nH]c2ccccc12', '2.65 µM (active)'),
  ('O=C(O)c1[nH]c2ccc(Cl)cc2c1CCN1C(=O)c2ccccc2C1=O', '13.6 µM (active)');
